tested on: HeLa; assay: Concentration required to cause a microscopically detectable alteration in cell morphology in HeLa cell cultures.; type: functional; conditions: Homo sapiens, read-out: Min cytotoxic concentration
MCC by entry:
Field: numeric (µg/mL). Do not append units.

Completed entries (count: 8):
[[record]]
molecule = "Nc1ncnc2c1cc(Br)n2C1O[C@H](CO)[C@@H](O)[C@H]1O (stereo partly drawn)"
recorded_endpoint = "MCC"
measure_unit = "µg/mL"
observed_value = 400

[[record]]
molecule = "N#C/C=C/c1cn(C2O[C@H](CO)[C@@H](O)[C@H]2O)c2ncnc(N)c12 (stereo partly drawn)"
recorded_endpoint = "MCC"
measure_unit = "µg/mL"
observed_value = 4

[[record]]
molecule = "CC(O)c1cn(C2O[C@H](CO)[C@@H](O)[C@H]2O)c2ncnc(N)c12 (stereo partly drawn)"
recorded_endpoint = "MCC"
measure_unit = "µg/mL"
observed_value = 40

[[record]]
molecule = "Nc1ncnc2c1c(Br)c(Br)n2C1O[C@H](CO)[C@@H](O)[C@H]1O (stereo partly drawn)"
recorded_endpoint = "MCC"
measure_unit = "µg/mL"
observed_value = 40

[[record]]
molecule = "COC(C)c1cn(C2O[C@H](CO)[C@@H](O)[C@H]2O)c2ncnc(N)c12 (stereo partly drawn)"
recorded_endpoint = "MCC"
measure_unit = "µg/mL"
observed_value = 10

[[record]]
molecule = "NC(=O)c1cn([C@@H]2O[C@H](CO)[C@@H](O)[C@H]2O)c2ncnc(N)c12"
recorded_endpoint = "MCC"
measure_unit = "µg/mL"
observed_value = 0.4

[[record]]
molecule = "Nc1ncnc2c1c(Br)cn2[C@@H]1O[C@H](CO)[C@@H](O)[C@H]1O"
recorded_endpoint = "MCC"
measure_unit = "µg/mL"
observed_value = 1

[[record]]
molecule = "Nc1ncnc2c1c(I)cn2[C@@H]1O[C@H](CO)[C@@H](O)[C@H]1O"
recorded_endpoint = "MCC"
measure_unit = "µg/mL"
observed_value = 1


Respond only with MCC recorded for Nc1ncnc2c1c(CCCO)cn2C1O[C@H](CO)[C@@H](O)[C@H]1O (stereo partly drawn)
40

Respond only with MCC recorded for Nc1ncnc2c1c(/C=C/Br)cn2C1O[C@H](CO)[C@@H](O)[C@H]1O (stereo partly drawn)
4

Respond only with MCC recorded for Nc1ncnc2c1c(Cl)c(Cl)n2C1O[C@H](CO)[C@@H](O)[C@H]1O (stereo partly drawn)
40

Respond only with MCC recorded for C/C=C/Cc1cn(C2O[C@H](CO)[C@@H](O)[C@H]2O)c2ncnc(N)c12 (stereo partly drawn)
1

Respond only with MCC recorded for Nc1ncnc2c1c(Cl)cn2[C@@H]1O[C@H](CO)[C@@H](O)[C@H]1O
4

Respond only with MCC recorded for Nc1ncnc2c1ccn2[C@@H]1O[C@H](CO)[C@@H](O)[C@H]1O
0.4

###

test system: Human alphaherpesvirus 1; test: Concentration required to reduce HSV-1 (KOS) induced cytopathogenicity by 50% in primary rabbit kidney cell cultures.; format: functional
recorded_endpoint: MIC (µg/mL)
Field: numeric (µg/mL). Do not append units.

Completed entries (count: 3):
[[record]]
compound = "N#C/C=C/c1cn(C2O[C@H](CO)[C@@H](O)[C@H]2O)c2ncnc(N)c12 (stereo partly drawn)"
recorded_endpoint = "MIC"
observed_value = 2

[[record]]
compound = "NC(=O)c1cn([C@@H]2O[C@H](CO)[C@@H](O)[C@H]2O)c2ncnc(N)c12 [SANGIVAMYCIN]"
recorded_endpoint = "MIC"
observed_value = 0.07

[[record]]
compound = "Nc1ncnc2c1ccn2[C@@H]1O[C@H](CO)[C@@H](O)[C@H]1O [TUBERCIDIN]"
recorded_endpoint = "MIC"
observed_value = 0.07


Consider the record given below.
Respond only with MIC recorded for Nc1ncnc2c1c(I)cn2[C@@H]1O[C@H](CO)[C@@H](O)[C@H]1O [IODOTUBERCIDIN]
0.02
